Biological target: T1, recombinant human CD40 (ECD)-his (human, UniProt P25942 21-193)
T1 construct: Bought protein; also called hCD40(ECD)-his; TNFRSF5
T1 sequence (P25942 21-193): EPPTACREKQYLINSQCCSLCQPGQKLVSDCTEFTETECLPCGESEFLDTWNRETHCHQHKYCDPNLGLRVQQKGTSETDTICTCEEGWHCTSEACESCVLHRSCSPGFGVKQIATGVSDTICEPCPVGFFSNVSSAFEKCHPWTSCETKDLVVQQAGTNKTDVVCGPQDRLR
Assay: SPR (Biacore 8K), hCD40(ECD)-his coupled to chip, antibody injected
quantity-name: kon (M⁻¹ s⁻¹)
Write it as a number; the unit M⁻¹ s⁻¹ goes unstated.

// worked examples, kon included
| binder | unit-of-measure | kon |
| --- | --- | --- |
| 7B4-VH2VL2 (antibody, V domains shown, Humanized, human IgG2/kappa; also called 7B4H2L2) VH: QVQLQESGPGLVKPSDTLSLTCAVSGYSITTNYYWNWIRQPPGKGLEWMGYIKYDGSNNYNPSLKNRITISVDTSKNQFSLKLSSVTAVDTAVYYCARLDYWGQGTLVTVSS VL: DVVLTQSPLSLPVTLGQPASISCRSSQSLENSNGNTFLNWFQQRPGQSPRLLIYKVSNRFSGVPDRFSGSGSGTDFTLKISRVEAEDVGVYYCLQVTHVPFTFGQGTKLEIKR | M⁻¹ s⁻¹ | 2e+06 |
| 13A2-VH3VL3 (antibody, human IgG2, kappa, V domains shown, Humanized, human IgG2/kappa) VH: QVQLQESGPGLVKPSDTLSLTCAVSGYSITTNYYWNWIRQPPGNKLEWMGYINYDGSNNYNPSLKNRITISVDTSKNQFSLKLSSVTAVDTAVYYCARLDYWGQGTLVTVSS VL: DVVLTQSPLSLPVTLGQPASISCRSSQSLENSNGNTFLNWFQQRPGQSPRLLIYKVSNRFSGVPDRFSGSGSGTDFTLKISRVEAEDVGVYFCLQVTHVPFTFGSGTKLEIKR | M⁻¹ s⁻¹ | 598000 |

Problem: Form field: reported kon of 13A2-VH3VL2 (antibody, human IgG2, kappa, V domains shown, Humanized, human IgG2/kappa) VH: QVQLQESGPGLVKPSDTLSLTCAVSGYSITTNYYWNWIRQPPGNKLEWMGYINYDGSNNYNPSLKNRITISVDTSKNQFSLKLSSVTAVDTAVYYCARLDYWGQGTLVTVSS VL: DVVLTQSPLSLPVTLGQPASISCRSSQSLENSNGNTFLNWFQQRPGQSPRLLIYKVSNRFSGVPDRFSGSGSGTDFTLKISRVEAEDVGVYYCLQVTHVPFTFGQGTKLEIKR
Result: 825000

src = patent US10654939
